# ASSAY INFO: inhibition of 3D7 malaria parasite growth – strain 3D7 (AID 2306);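 also: 0% = DMSO wells and 100% = chloroquine plus artemisinin control wells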
# TEST CONDITIONS: P. falciparum 3D7 erythrocytic growth, LDH absorbance, 72 h; at 2 µM; active compounds read high
READOUT LABEL: growth inhibition (%)
Report only the number, with the unit % understood.

# lookup: growth inhibition of `CC(C)(C)c1ccc(NC(=O)c2ccc(CN3CCCN(Cc4cccc(C#N)c4)CC3)cc2)cc1`
99

Similarly, `Cc1ccc2nc(/N=C(\N)NC(=O)NC3CCCCC3)nc(C)c2c1` ?
99

Similarly, `Nc1c2c(nc3ccc(NC(=O)CCCCCCc4ccccc4)cc13)CCCC2` ?
100

Similarly, `CCN(CC)CCN(Cc1ccc(-c2ccc(C#N)cc2)cc1)C(=O)Cn1c(CCc2cccc(F)c2F)nc(=O)c2ccccc21` ?
100

Similarly, CC(CN1CCN(C)CC1)C(=O)Nc1cccc(-c2cccc(-c3nc4ccccc4[nH]3)c2)c1 (centres undefined) ?
88

Similarly, `COc1cc(CNC[C@@H](O)[C@H](Cc2ccccc2)NC(=O)c2cc(C3CCCC3)cc(N3CCCCS3(=O)=O)c2)cc(OC)c1` ?
98

Similarly, `Fc1cccc(COc2ccc(Nc3ncnc4ccc(-c5nnc(C(F)(F)F)o5)cc34)cc2Cl)c1` ?
101

Similarly, `CCCC1(NC[C@@H](O)[C@H](Cc2ccccc2)NC(=O)c2cc(NCC)cc(N3CCCCS3(=O)=O)c2)CCCCC1` ?
101

Similarly, CCOC(=O)c1cn(CC)c2cc(F)c(OC3C[C@@H]4CC[C@@]3(C)C4(C)C)cc2c1=O (some centres undefined) ?
91

###

# ASSAY INFO: antimalarial activity against Dd2 strain (AID 2302);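 also: 0% = DMSO untreated growth and 100% = chloroquine plus artemisinin killed control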
# TEST CONDITIONS: P. falciparum Dd2 in RBCs, LDH growth readout, 72 h; at 2 µM
Active and inactive are the calls of the source.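 The calls were made as follows: active = growth inhibition above 50% at the single 2 µM test dose, taken to imply half-maximal potency below 2 µM; inactive = the rest.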
Select the correct class. Options are Yes (active), No (inactive) and nothing else.

Just curious, what result did `CCCCn1c(SC(C)C)nc2c(c1=O)C1(CCCCC1)Cc1ccccc1-2` get here?
Yes

Similarly, `CCc1cc2c3c(N)nc(N)nc3ccc2n1C(CC)CC` ?
No

Similarly, `Cc1cc(N(CCCN(C)C)Cc2cc(F)cc(F)c2)nc(Nc2ccc(Cl)cc2)n1` ?
Yes

Similarly, `O=C(Nc1cccc(CN2CCCN(Cc3ncc[nH]3)CC2)c1)c1ccc(-c2ccccc2)cc1` ?
Yes

Similarly, `CCc1ccc(O)c(-c2cc(C(=O)Nc3ccc(OC)c(Cl)c3)[nH]n2)c1` ?
Yes

Similarly, `Oc1ccc(CN2CCC(NCc3cccc4ccccc34)CC2)cc1` ?
No

Similarly, `CC(=O)Nc1ccc(OCCCCN(Cc2ccccc2C(F)(F)F)c2ccc(C#N)c(C(F)(F)F)c2)cc1` ?
No

Similarly, CN1CCC(Oc2ccc(CN3CC[C@H](NC(=O)c4ccc(Cl)c(F)c4)C3)c3ccccc23)C1 (stereo not given in full) ?
Yes

Similarly, COc1ccc(C2CC(=O)C3=C(C2)NC(C)=C(C(=O)OC2CCCC2)C3c2ccc(O)cc2)cc1OC (stereo not given) ?
Yes

Similarly, `Cc1cc(N)nc2ccc(-c3cccc(CN)c3)cc12` ?
Yes

###

# ASSAY INFO: antimalarial activity against Dd2 strain (AID 2302);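 also: 0% = DMSO untreated growth and 100% = chloroquine plus artemisinin killed control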
# TEST CONDITIONS: P. falciparum Dd2 in RBCs, LDH growth readout, 72 h; at 2 µM; active compounds read high
READOUT LABEL: growth inhibition (%)
Report only the number, with the unit % understood.

# lookup: growth inhibition of `O=C(Nc1ccc(-c2cccc(-c3nc4ccccc4[nH]3)c2)cc1)c1cnn2cccnc12`
36

Similarly, `COc1cccc(-c2ccc(O)c(CNCCc3cccc(F)c3)c2)n1` ?
67

Similarly, `COc1cccc(CNC[C@@H](O)[C@H](Cc2ccccc2)NC(=O)c2cc3c4c(c2)c(C(C)C)cn4CCS(=O)(=O)N3C)c1` ?
98

Similarly, `Cc1cc(N[C@@H](Cc2ccccc2)C(=O)Nc2ccccc2)nc(Nc2ccccc2)n1` ?
69

Similarly, `CCNc1cc(C(=O)N[C@@H](Cc2ccccc2)[C@H](O)CNC2(CC)CC2)cc(N2CCCCS2(=O)=O)c1` ?
94

Similarly, `CO/C(=C\C=C\c1cc2cc(Cl)c(Cl)cc2[nH]1)C(=O)NCCCN1CCN(c2cccc(CCCO)c2)CC1` ?
36

Similarly, `CCN(CC)CCN(Cc1ccc(-c2ccc(C(F)(F)F)cc2)cc1)C(=O)Cn1c(CCc2cccc(F)c2F)c(C)c(=O)c2ccccc21` ?
52

Similarly, `CCc1cn2c3c(cc(C(=O)N[C@@H](Cc4cc(F)cc(F)c4)[C@H](O)CNC4CCCCC4)cc13)N(C)S(=O)(=O)CC2` ?
99
